Experiment Summary: chemical genetic growth profiling, strain panel (AID 1159580);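 note: tested at 20 µM; growth read once vehicle control cultures reached saturation at 30 °C; 1 = growth at the plate median or of vehicle wells; lower values mean less growth of the strain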
Condition Notes: S. cerevisiae deletion strains, growth OD, locus YIL073C, strain SPO22, active compounds read low
Out of some 5,500 compounds screened, about 2,000 (36%) were called active. About 18% were inconclusive and are not listed. This is one part of the list.
Assay Readout: normalized growth
Form rule: numeric answer, no unit written next to it.

Known normalized growth results, listed for orientation:
CC1=C(/C=C/C(C)=C/C=C/C(C)=C/C(=O)O)C(C)(C)CCC1; 1.04
CC1(C)C2CC(=O)O[C@@]3(C)C4=CC(=O)O[C@@H](c5ccoc5)[C@]4(C)CCC3[C@@]2(C)C=C[C@H]1O (some centres not stated); 0.988
NCc1ccc(S(N)(=O)=O)cc1; 1.01
CC1=C(/C=C/C(C)=C/C=C/C(C)=C/CO)C(C)(C)CCC1; 1.01
O=C(O)CCCCCCCCCCCCC1C=CCC1 (configuration not stated); 0.604
CN(C)CCCO[C@H]1[C@@H](C(O)CO)OC2OC(C)(C)O[C@@H]21 (some centres not stated); 0.932

Could you now look at the following molecule, please?
Recorded normalized growth of Nc1c(Br)cc(Br)cc1CNC1CCC(O)CC1 (configuration not stated) , please.
1.04

###

Reported normalized growth by item:
Experiment Summary: chemical genetic growth profiling, strain panel (AID 1159580)
Condition Notes: S. cerevisiae deletion strains, growth OD, locus YNL153C, strain GIM3, active compounds read low
The whole screen tested about 5,500 compounds, of which about 2,000 (36%) were called active. Another 18% or so got no clear call; they are omitted. This is one part of the list.

Known normalized growth results, listed for orientation:
O=C(CCCCCCCCC(=O)c1ccccc1)c1ccccc1; 0.994 (inactive)
Cn1ccc2cc3c(cc21)CCN3C(=O)Nc1cccnc1; 0.976 (inactive)
CN1CCc2cc(NC(=O)Nc3cccnc3)ccc21; 1.01 (inactive)

Could you now look at the following compound, please?
Recorded normalized growth of OCC(S)CS (centres undefined) , please.
0.973 (inactive)

###

Experiment Summary: chemical genetic growth profiling, strain panel (AID 1159580)
Condition Notes: S. cerevisiae deletion strains, growth OD, locus YJL115W, strain asf1, active compounds read low
In all, about 5,500 compounds went through this assay and about 2,000 (36%) were called active. Inconclusive results (about 18%) are left out. Some of the results follow.
Assay Readout: normalized growth
Form rule: numeric answer, no unit written next to it.

Known normalized growth results, listed for orientation:
CN1CCc2cccc3c2C1Cc1ccc(O)c(O)c1-3 (centres undefined); 0.999
CC1(C)CC2C1CCC1(C)OC1CCC2(C)O (centres undefined); 1.04
CC[C@@H](C(=O)[C@@H](C)[C@@H](O)[C@H](C)[C@@H]1O[C@@H]([C@@H](CC)C(=O)O)CC[C@@H]1C)[C@H]1OC2(C=C[C@@H](O)[C@]3(CC[C@@](C)([C@H]4CC[C@](O)(CC)[C@H](C)O4)O3)O2)[C@H](C)C[C@@H]1C (some centres undefined); 0.985

Recorded normalized growth of CC1(C)CC2C1CCC1(C)OC2(C)CCC1O (centres undefined) , please.
1.03

###

Experiment Summary: chemical genetic growth profiling, strain panel (AID 1159580)
Condition Notes: S. cerevisiae deletion strains, growth OD, locus YDL134C, strain PPH21, active compounds read low
Among all 5,500 compounds or so, about 2,000 (36%) were called active. About 18% were inconclusive and are not listed. The list shows a part of the results.
Reported normalized growth by item:
Form rule: numeric answer, no unit written next to it.

C[C@@H]1CC2C3CCC4=CC(=O)C=C[C@]4(C)[C@@]3(F)[C@@H](O)C[C@]2(C)[C@@]1(O)C(=O)COP(=O)(O)O (stereo partly drawn); 1.02
CN(C)CCCO[C@H]1[C@@H](C(O)CO)OC2OC(C)(C)O[C@@H]21 (stereo partly drawn); 0.991

Recorded normalized growth of CC12CCCC(O)(C1)C1CC(C)(C)C1CC2 (stereo not drawn) , please.
1.03

###

Experiment Summary: chemical genetic growth profiling, strain panel (AID 1159580)
Condition Notes: S. cerevisiae deletion strains, growth OD, locus YOR001W, strain rrp6, active compounds read low
Out of some 5,500 compounds screened, about 2,000 (36%) were called active. Another 18% or so got no clear call; they are omitted. Some of the results follow.
Reported normalized growth by item:
Form rule: numeric answer, no unit written next to it.

Known normalized growth results, listed for orientation:
O=C(NC(Cc1cc(=O)[nH]c2ccccc12)C(=O)O)c1ccc(Cl)cc1 (centres undefined); 0.988
CO[C@@H]1[C@@H](O[C@@H]2O[C@H](C)[C@@H](O[C@H]3C[C@@](C)(O)[C@H](O)[C@H](C)O3)[C@H](N(C)C)[C@H]2O)[C@@H](CC=O)C[C@@H](C)[C@@H](O[C@H]2CC[C@H](N(C)C)[C@@H](C)O2)/C=C/C=C/C[C@H](C)OC(=O)C[C@H]1O; 0.998
C#C[C@]1(O)CCC2C3CCc4cc(OC)ccc4C3CC[C@@]21C (some centres undefined); 1

Recorded normalized growth of CCOC(=O)c1ccc(N)cc1 , please.
1.02

###

Experiment Summary: chemical genetic growth profiling, strain panel (AID 1159580);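 note: tested at 20 µM; growth read once vehicle control cultures reached saturation at 30 °C; 1 = growth at the plate median or of vehicle wells; lower values mean less growth of the strain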
Condition Notes: S. cerevisiae deletion strains, growth OD, locus YNL183C, strain NPR1
Hit rate of the full screen: of about 5,500 compounds, about 2,000 (36%) were called active. Another 18% or so got no clear call; they are omitted. No stated cut-off is given here; in the data, active means normalized growth mostly below about 0.91 (no sharp cut-off); inconclusive means no clear call, values can overlap the other calls; inactive means mostly above about 0.92. The list shows a part of the results.
Select the matching outcome among YES (active), NO (inactive)

Look over these answered cases.
CC[C@@H]1[C@@H](O)N2C3C[C@H]1C1C(O)[C@]4(C[C@@H]12)c1ccccc1N(C)[C@@H]34 (stereo partly drawn); NO
NC(=O)N/N=C\c1ccc([N+](=O)[O-])o1; NO

Called result for O=C(Nc1ccccn1)c1cc(-c2ccccc2)c(C(F)(F)F)s1
NO

Param item: CO[C@@H]1[C@@H](O[C@@H]2O[C@H](C)[C@@H](O[C@H]3C[C@@](C)(O)[C@H](O)[C@H](C)O3)[C@H](N(C)C)[C@H]2O)[C@@H](CC=O)C[C@@H](C)[C@@H](O[C@H]2CC[C@H](N(C)C)[C@@H](C)O2)/C=C/C=C/C[C@H](C)OC(=O)C[C@H]1O
NO

Param item: CC(=O)Oc1cc(C)c2c(c1C=O)Oc1c(c(C)c(OC(C)=O)c3c1C(OC(C)=O)OC3=O)OC2=O (stereo not drawn)
NO

Param item: CCOC(=O)CCCCCCCCCCCCC1C=CCC1 (stereo not drawn)
NO

Param item: COc1cc(C(=O)Oc2c(Cl)cc(Cl)cc2C=Nc2ccc([N+](=O)[O-])cc2C#N)cc(OC)c1OC
YES

Param item: OC/C=C/c1ccc(O)c(O)c1
NO

Param item: Nc1cc(-c2ccc(OC(F)(F)F)cc2)nn1-c1ccc(Cl)c(Cl)c1
YES

###

Reported normalized growth by item:
Experiment Summary: chemical genetic growth profiling, strain panel (AID 1159580);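 note: tested at 20 µM; growth read once vehicle control cultures reached saturation at 30 °C; 1 = growth at the plate median or of vehicle wells; lower values mean less growth of the strain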
Condition Notes: S. cerevisiae deletion strains, growth OD, locus YOR061W, strain CKA2, active compounds read low
Hit rate of the full screen: of about 5,500 compounds, about 2,000 (36%) were called active. Not shown: some 18% with an inconclusive outcome. This is one part of the list.
Form rule: numeric answer, no unit written next to it.

Nc1cc(-c2ccc(OC(F)(F)F)cc2)nn1-c1ccc(Cl)c(Cl)c1; 0.355
Oc1cc(O)cc(/C=C/c2ccccc2)c1; 1.01

Recorded normalized growth of Nc1nc2c(c(=O)[nH]1)N(C=O)C(CNc1ccc(C(=O)N[C@@H](CCC(=O)O)C(=O)O)cc1)CN2 (some centres undefined) , please.
0.992

Param item: CCOC(=O)NC(=S)NC12CC3CC(CC(C3)C1)C2
0.845

Param item: COS(C)(=O)=O
1

Param item: CC1(C)C/C(=N/Nc2ccc(C(F)(F)F)cc2)c2cc(C(C)(C)C)c(O)c(O)c2O1
0.243

###

Experiment Summary: chemical genetic growth profiling, strain panel (AID 1159580);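 note: tested at 20 µM; growth read once vehicle control cultures reached saturation at 30 °C; 1 = growth at the plate median or of vehicle wells; lower values mean less growth of the strain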
Condition Notes: S. cerevisiae deletion strains, growth OD, locus YFR028C, strain CDC14, active compounds read low
About 2,000 (36%) of roughly 5,500 compounds were called active. Inconclusive results (about 18%) are left out. The list shows a part of the results.
Assay Readout: normalized growth
Form rule: numeric answer, no unit written next to it.

NC(=NC(=O)c1ccc(Cl)cc1)c1cccs1; 0.948
Clc1ccc(-c2noc(CSC3=NCCN3)n2)cc1; 0.971
COCCOc1ccccc1NC(=S)SCCSC(=S)Nc1ccccc1OCCOC; 0.988
O=C(Nc1cccc(C(F)(F)F)c1)Oc1ccc(F)cc1Cl; 0.98

Could you now look at the following compound, please?
Recorded normalized growth of Cc1cc(C(=O)O/N=C(/N)c2ccc(C(C)(C)C)cc2)no1 , please.
0.98
